- Assay method text: AUC (0 to 72 hrs) in Sprague-Dawley rat at 5 mg/kg, iv measured after 0.08 to 72 hrs post dose by LC-MS/MS analysis
- Type: ADME, organism-based
- Design: time < 72 hr, dose 5 mg/kg, route intravenous
- Reported conditions: in vivo
Measurement name: AUC(0-t) at 72 h (ng·h/mL)

[[record]]
entry_smiles = "CN(C)CCN(C)c1ccc(C#N)c(CN2CCN(c3ccc(Cl)cc3)CC2)c1"
result_units = "ng·h/mL"
result = 5420


---

- Assay method text: Bioavailability in Sprague-Dawley rat at 5 mg/kg, iv measured after 0.08 to 72 hrs post dose by LC-MS/MS analysis
- Assay type: ADME, organism-based
- Reported conditions: in vivo
Measurement name: bioavailability (%)

[[record]]
entry_smiles = "CN(C)CCN(C)c1ccc(C#N)c(CN2CCN(c3ccc(Cl)cc3)CC2)c1"
result_units = "%"
result = 59

